System: 966289-007-R4-J1-PDC complex spheroid viability
Test: Anticancer human tumor 966289-007-R4-J1-PDC patient-derived pancreatic adenocarcinoma cell line growth inhibition [RAS]
Details: curve of first compound; second compound 0.0949 µM
Endpoint: IC50

Completed entries (count: 3):
CC(=O)OC12COC1CC(O)C1(C)C(=O)C(O)C3=C(C)C(OC(=O)C(O)C(NC(=O)OC(C)(C)C)c4ccccc4)CC(O)(C(OC(=O)c4ccccc4)C21)C3(C)C (centres undefined) + CCn1c(-c2cccnc2C(C)OC)c2c3cc(ccc31)N1CCOC(CC(NC(=O)C(C(C)C)N(C)C(=O)C3(F)CCN(C(=O)C#CC(C)(C)N(C)C)CC3)C(=O)N3CCCC(N3)C(=O)OCC(C)(C)C2)C1 ... < 0.0316 µM
O=C(c1ccc(F)c(F)c1Nc1ccc(I)cc1F)N1CC(O)([C@@H]2CCCCN2)C1 + CCn1c(-c2cc(N3CCN(C)CC3)cnc2C(C)OC)c2c3cc(ccc31)-c1csc(n1)CC(NC(=O)C1CC1C)C(=O)N1CCCC(N1)C(=O)OCC(C)(C)C2 ... 0.0452 µM
CCc1c2c(nc3ccc(O)cc13)-c1cc3c(c(=O)n1C2)COC(=O)[C@]3(O)CC + CCn1c(-c2cc(N3CCN(C)CC3)cnc2C(C)OC)c2c3cc(ccc31)-c1csc(n1)CC(NC(=O)C1CC1C)C(=O)N1CCCC(N1)C(=O)OCC(C)(C)C2 ... 0.00115 µM

Looking up NC1c2ccccc2OC12CCN(c1cnc3c(N4CCCc5ncccc54)n[nH]c3n1)CC2 (centres undefined) + CCn1c(-c2cccnc2C(C)OC)c2c3cc(ccc31)N1CCOC(CC(NC(=O)C(C(C)C)N(C)C(=O)C3(F)CCN(C(=O)C#CC(C)(C)N(C)C)CC3)C(=O)N3CCCC(N3)C(=O)OCC(C)(C)C2)C1 , I see its IC50 listed as > 10 µM

====

Tested on: 966289-007-R4-J1-PDC complex spheroid viability
Assay: Anticancer human tumor 966289-007-R4-J1-PDC cell line growth inhibition [RAS];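 also: spheroids exposed to agents for one week before readout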;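 as to viability, T/C: percent viability relative to DMSO vehicle control wells as 100%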
Conditions: second compound 0.0316 µM; first compound 3.16 µM; stronger effect = lower value
Endpoint: viability, T/C (%)
Just the number in %, nothing appended.

Completed entries (count: 2):
Cc1nc(N2CCC3(CC2)COC(C)C3N)c(CO)nc1Sc1ccnc(N)c1Cl (stereo not drawn) + C=CC(=O)N1CCN(c2nc(OCC3CCCN3C)nc3c(F)c(-c4nc(N)cc(C)c4C(F)(F)F)c(Cl)cc23)C(C)C1 ... 108
CCC(CC)c1cc(NC2CCC(N)C2)n2nccc2n1 (stereo not drawn) + C#Cc1c(F)ccc2cc(O)cc(-c3ncc4c(N5CC6CCC(C5)N6)nc(OCC56CCCN5CC(F)C6)nc4c3F)c12 ... 2.83

Field: next molecule
Looking up CC(Nc1ccc2c(c1)OCCn1cc(N3C(=O)OCC3C(F)F)nc1-2)C(N)=O (stereo not drawn) + C#Cc1c(F)ccc2cc(O)cc(-c3ncc4c(N5CC6CCC(C5)N6)nc(OCC56CCCN5CC(F)C6)nc4c3F)c12 , I see its viability, T/C listed as 107

====

System: 966289-007-R4-J1-PDC complex spheroid viability
Experiment: Anticancer human tumor 966289-007-R4-J1-PDC cell line growth inhibition [RAS]; active = viability on the fitted dose curve at most 10% of control; inactive = the rest;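 also: spheroids exposed to agents for one week before readout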
Details: second compound 0.3 µM; first compound 0.316 µM
Excerpt: RAS pathway inhibitors in Combinations in Complex Spheroids A high-throughput screen of multi-cell type tumor spheroids was designed to identify active combinations of RAS pathway inhibitors and targeted small molecules. Complex spheroids include a stromal component modeled by human endothelial cells (HUVEC) and fibroblasts modeled by human mesenchymal stem cells (MSCs). […] Compounds. […] If the clinical Cmax for an agent had not been determined, the highest concentration tested was 10 microM. […]
Choose one outcome from this list and give only that: active, inactive

CC(C)NCC(C(=O)N1CCN(c2ncnc3c2C(C)CC3O)CC1)c1ccc(Cl)cc1 (configuration not stated) + CCn1c(-c2cccnc2C(C)OC)c2c3cc(ccc31)N1CCOC(CC(NC(=O)C(C(C)C)N(C)C(=O)C3(F)CCN(C(=O)C#CC(C)(C)N(C)C)CC3)C(=O)N3CCCC(N3)C(=O)OCC(C)(C)C2)C1 ... inactive

From here, focus on the item given below.
## Task Tell me the assay call for Nc1ccn(C2OC(CO)C(O)C2(F)F)c(=O)n1 (configuration not stated) + CCn1c(-c2cccnc2C(C)OC)c2c3cc(ccc31)N1CCOC(CC(NC(=O)C(C(C)C)N(C)C(=O)C3(F)CCN(C(=O)C#CC(C)(C)N(C)C)CC3)C(=O)N3CCCC(N3)C(=O)OCC(C)(C)C2)C1 please.
## Result active

====

Test system: 966289-007-R4-J1-PDC complex spheroid viability
Experiment: Anticancer human tumor 966289-007-R4-J1-PDC cell line growth inhibition [RAS]; active = viability on the fitted dose curve at most 10% of control; inactive = the rest;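 also: spheroids exposed to agents for one week before readout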
Details: second compound 0.0949 µM; first compound 0.1 µM
Choose one outcome from this list and give only that: 1 (active), -1 (inactive)

CC(=O)OC12COC1CC(O)C1(C)C(=O)C(O)C3=C(C)C(OC(=O)C(O)C(NC(=O)OC(C)(C)C)c4ccccc4)CC(O)(C(OC(=O)c4ccccc4)C21)C3(C)C (configuration not stated) + CCn1c(-c2cccnc2C(C)OC)c2c3cc(ccc31)N1CCOC(CC(NC(=O)C(C(C)C)N(C)C(=O)C3(F)CCN(C(=O)C#CC(C)(C)N(C)C)CC3)C(=O)N3CCCC(N3)C(=O)OCC(C)(C)C2)C1 ... 1

From here, focus on the item given below.
## Task Tell me the assay call for C[C@@H](NC(=O)c1ncnc(N)c1Cl)c1ncc(C(=O)Nc2cc(C(F)(F)F)c(Cl)cn2)s1 + CCn1c(-c2cccnc2C(C)OC)c2c3cc(ccc31)N1CCOC(CC(NC(=O)C(C(C)C)N(C)C(=O)C3(F)CCN(C(=O)C#CC(C)(C)N(C)C)CC3)C(=O)N3CCCC(N3)C(=O)OCC(C)(C)C2)C1 please.
## Result -1

====

System: 966289-007-R4-J1-PDC complex spheroid viability
Test: Anticancer human tumor 966289-007-R4-J1-PDC cell line growth inhibition [RAS];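 also: spheroids exposed to agents for one week before readout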;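 as to viability, T/C: percent viability relative to DMSO vehicle control wells as 100%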
Conditions: second compound 0.0316 µM; first compound 0.1 µM; stronger effect = lower value
# reported viability, T/C; entries follow
Just the number in %, nothing appended.

Looking up CCN1CCN(Cc2ccc(Nc3ncc(F)c(-c4cc(F)c5nc(C)n(C(C)C)c5c4)n3)nc2)CC1 + C#Cc1c(F)ccc2cc(O)cc(-c3ncc4c(N5CC6CCC(C5)N6)nc(OCC56CCCN5CC(F)C6)nc4c3F)c12 , I see its viability, T/C listed as 92.8

Looking up Cc1nc(N2CCC3(CC2)COC(C)C3N)c(CO)nc1Sc1ccnc(N)c1Cl (centres undefined) + C=CC(=O)N1CCN(c2nc(OCC3CCCN3C)nc3c(F)c(-c4nc(N)cc(C)c4C(F)(F)F)c(Cl)cc23)C(C)C1 , I see its viability, T/C listed as 97.9

Looking up NC1c2ccccc2OC12CCN(c1cnc3c(N4CCCc5ncccc54)n[nH]c3n1)CC2 (centres undefined) + C=CC(=O)N1CCN(c2nc(OCC3CCCN3C)nc3c(F)c(-c4nc(N)cc(C)c4C(F)(F)F)c(Cl)cc23)C(C)C1 , I see its viability, T/C listed as 103

Looking up CCC(CC)c1cc(NC2CCC(N)C2)n2nccc2n1 (centres undefined) + C#Cc1c(F)ccc2cc(O)cc(-c3ncc4c(N5CC6CCC(C5)N6)nc(OCC56CCCN5CC(F)C6)nc4c3F)c12 , I see its viability, T/C listed as 87.7

Looking up O=C(c1ccc(F)c(F)c1Nc1ccc(I)cc1F)N1CC(O)([C@@H]2CCCCN2)C1 + C=CC(=O)N1CCN(c2nc(OCC3CCCN3C)nc3c(F)c(-c4nc(N)cc(C)c4C(F)(F)F)c(Cl)cc23)C(C)C1 , I see its viability, T/C listed as 70.3

Looking up CC(=O)OC12COC1CC(O)C1(C)C(=O)C(O)C3=C(C)C(OC(=O)C(O)C(NC(=O)OC(C)(C)C)c4ccccc4)CC(O)(C(OC(=O)c4ccccc4)C21)C3(C)C (centres undefined) + C=CC(=O)N1CCN(c2nc(OCC3CCCN3C)nc3c(F)c(-c4nc(N)cc(C)c4C(F)(F)F)c(Cl)cc23)C(C)C1 , I see its viability, T/C listed as 13.9

Looking up C=CC(=O)N1CCN(c2nc(OCC3CCCN3C)nc3c(F)c(-c4nc(N)cc(C)c4C(F)(F)F)c(Cl)cc23)C(C)C1 (centres undefined) + C#Cc1c(F)ccc2cc(O)cc(-c3ncc4c(N5CC6CCC(C5)N6)nc(OCC56CCCN5CC(F)C6)nc4c3F)c12 , I see its viability, T/C listed as 98.2

Looking up CC(=O)OC12COC1CC(O)C1(C)C(=O)C(O)C3=C(C)C(OC(=O)C(O)C(NC(=O)OC(C)(C)C)c4ccccc4)CC(O)(C(OC(=O)c4ccccc4)C21)C3(C)C (centres undefined) + C#Cc1c(F)ccc2cc(O)cc(-c3ncc4c(N5CC6CCC(C5)N6)nc(OCC56CCCN5CC(F)C6)nc4c3F)c12 , I see its viability, T/C listed as 17.9

Looking up C=CC(=O)Nc1cc(Nc2nccc(-c3cn(C)c4ccccc34)n2)c(OC)cc1N(C)CCN(C)C + C#Cc1c(F)ccc2cc(O)cc(-c3ncc4c(N5CC6CCC(C5)N6)nc(OCC56CCCN5CC(F)C6)nc4c3F)c12 , I see its viability, T/C listed as 96.3

Looking up O=C(c1ccc(F)c(F)c1Nc1ccc(I)cc1F)N1CC(O)([C@@H]2CCCCN2)C1 + C#Cc1c(F)ccc2cc(O)cc(-c3ncc4c(N5CC6CCC(C5)N6)nc(OCC56CCCN5CC(F)C6)nc4c3F)c12 , I see its viability, T/C listed as 66.3

Looking up NC1c2ccccc2OC12CCN(c1cnc3c(N4CCCc5ncccc54)n[nH]c3n1)CC2 (centres undefined) + C#Cc1c(F)ccc2cc(O)cc(-c3ncc4c(N5CC6CCC(C5)N6)nc(OCC56CCCN5CC(F)C6)nc4c3F)c12 , I see its viability, T/C listed as 88.8
